system: PC-3 [JPC-3]; experiment: relative viability (nuclei count vs DMSO), 5 days (fraction); higher = more cells survive; settings: first compound 0.3162 µM

Molecule	relative viability
NC(=O)Nc1cc(-c2cccc(F)c2)sc1C(=O)N[C@H]1CCCNC1 [AZD7762] + CCNC(=O)c1noc(-c2cc(C(C)C)c(O)cc2O)c1-c1ccc(CN2CCOCC2)cc1 [Luminespib] (partner 0.01 µM)	0.713
NC(=O)Nc1cc(-c2cccc(F)c2)sc1C(=O)N[C@H]1CCCNC1 [AZD7762] + Cc1nc(Nc2ncc(C(=O)Nc3c(C)cccc3Cl)s2)cc(N2CCN(CCO)CC2)n1 [Dasatinib] (partner 0.075 µM)	1.01
NC(=O)Nc1cc(-c2cccc(F)c2)sc1C(=O)N[C@H]1CCCNC1 [AZD7762] + Nc1nc2[nH]cc(CCc3ccc(C(=O)N[C@@H](CCC(=O)O)C(=O)O)cc3)c2c(=O)[nH]1 [Pemetrexed] (partner 0.2 µM)	0.859
NC(=O)Nc1cc(-c2cccc(F)c2)sc1C(=O)N[C@H]1CCCNC1 [AZD7762] + COc1cccc2cc(-c3nc([C@H]4CC[C@H](C(=O)O)CC4)n4ncnc(N)c34)[nH]c12 [OSI-027] (partner 0.5 µM)	0.751
NC(=O)Nc1cc(-c2cccc(F)c2)sc1C(=O)N[C@H]1CCCNC1 [AZD7762] + CC1(C)CCC(c2ccc(Cl)cc2)=C(CN2CCN(c3ccc(C(=O)NS(=O)(=O)c4ccc(N[C@H](CCN5CCOCC5)CSc5ccccc5)c(S(=O)(=O)C(F)(F)F)c4)cc3)CC2)C1 [Navitoclax] (partner 0.5 µM)	0.847
NC(=O)Nc1cc(-c2cccc(F)c2)sc1C(=O)N[C@H]1CCCNC1 [AZD7762] + CS(=O)(=O)N1CCN(Cc2cc3nc(-c4cccc5[nH]ncc45)nc(N4CCOCC4)c3s2)CC1 [Pictilisib] (partner 1 µM)	0.705
NC(=O)Nc1cc(-c2cccc(F)c2)sc1C(=O)N[C@H]1CCCNC1 [AZD7762] + CC(C)C[C@H](NC(=O)[C@H](Cc1ccccc1)NC(=O)c1cnccn1)B(O)O [Bortezomib] (partner 0.002 µM)	0.883

----------
tested on: H3255; assay: relative viability (nuclei count vs DMSO), 5 days (fraction); higher = more cells survive; details: first compound 2.53 µM

Compound	relative viability
C=C1C(=O)O[C@@H](CCCCCCCC)[C@@H]1C(=O)O [C-75] + Cc1cc(Nc2cc(N3CCN(C)CC3)nc(Sc3ccc(NC(=O)C4CC4)cc3)n2)n[nH]1 [Tozasertib] (partner 0.1 µM)	0.701
Oc1nc(-c2ccc(C(F)(F)F)cc2)nc2c1CSCC2 [XAV939] + CS(=O)(=O)CCNCc1ccc(-c2ccc3ncnc(Nc4ccc(OCc5cccc(F)c5)c(Cl)c4)c3c2)o1 [Lapatinib] (partner 2 µM)	0.186
Oc1nc(-c2ccc(C(F)(F)F)cc2)nc2c1CSCC2 [XAV939] + CS(=O)(=O)N1CCN(Cc2cc3nc(-c4cccc5[nH]ncc45)nc(N4CCOCC4)c3s2)CC1 [Pictilisib] (partner 1 µM)	0.288
Oc1nc(-c2ccc(C(F)(F)F)cc2)nc2c1CSCC2 [XAV939] + COc1cccc2cc(-c3nc([C@H]4CC[C@H](C(=O)O)CC4)n4ncnc(N)c34)[nH]c12 [OSI-027] (partner 0.5 µM)	0.384
Oc1nc(-c2ccc(C(F)(F)F)cc2)nc2c1CSCC2 [XAV939] + Cc1nc(NC(=O)N2CCC[C@H]2C(N)=O)sc1-c1ccnc(C(C)(C)C(F)(F)F)c1 [Alpelisib] (partner 2 µM)	0.522
Oc1nc(-c2ccc(C(F)(F)F)cc2)nc2c1CSCC2 [XAV939] + O=C(CCCCCCC(=O)Nc1ccccc1)NO [Vorinostat] (partner 1 µM)	0.712
Oc1nc(-c2ccc(C(F)(F)F)cc2)nc2c1CSCC2 [XAV939] + CC(=O)Nc1cccc(-n2c(=O)n(C3CC3)c(=O)c3c(Nc4ccc(I)cc4F)n(C)c(=O)c(C)c32)c1 [Trametinib] (partner 0.02 µM)	0.425
C=C1C(=O)O[C@@H](CCCCCCCC)[C@@H]1C(=O)O [C-75] + C[C@@H](Oc1cc(-c2cnn(C3CCNCC3)c2)cnc1N)c1c(Cl)ccc(F)c1Cl [Crizotinib] (partner 1 µM)	0.841
C=C1C(=O)O[C@@H](CCCCCCCC)[C@@H]1C(=O)O [C-75] + CC(=O)Nc1cccc(-n2c(=O)n(C3CC3)c(=O)c3c(Nc4ccc(I)cc4F)n(C)c(=O)c(C)c32)c1 [Trametinib] (partner 0.02 µM)	0.543
C=C1C(=O)O[C@@H](CCCCCCCC)[C@@H]1C(=O)O [C-75] + CS(=O)(=O)CCNCc1ccc(-c2ccc3ncnc(Nc4ccc(OCc5cccc(F)c5)c(Cl)c4)c3c2)o1 [Lapatinib] (partner 2 µM)	0.21
Oc1nc(-c2ccc(C(F)(F)F)cc2)nc2c1CSCC2 [XAV939] + Cc1cc(Nc2cc(N3CCN(C)CC3)nc(Sc3ccc(NC(=O)C4CC4)cc3)n2)n[nH]1 [Tozasertib] (partner 0.1 µM)	0.544
Oc1nc(-c2ccc(C(F)(F)F)cc2)nc2c1CSCC2 [XAV939] + CCNC(=O)c1noc(-c2cc(C(C)C)c(O)cc2O)c1-c1ccc(CN2CCOCC2)cc1 [Luminespib] (partner 0.01 µM)	0.907
Oc1nc(-c2ccc(C(F)(F)F)cc2)nc2c1CSCC2 [XAV939] + CC1(C)CCC(c2ccc(Cl)cc2)=C(CN2CCN(c3ccc(C(=O)NS(=O)(=O)c4ccc(N[C@H](CCN5CCOCC5)CSc5ccccc5)c(S(=O)(=O)C(F)(F)F)c4)cc3)CC2)C1 [Navitoclax] (partner 0.5 µM)	0.366
C=C1C(=O)O[C@@H](CCCCCCCC)[C@@H]1C(=O)O [C-75] + CC(=O)c1c(C)c2cnc(Nc3ccc(N4CCNCC4)cn3)nc2n(C2CCCC2)c1=O [Palbociclib] (partner 0.5 µM)	0.281
Oc1nc(-c2ccc(C(F)(F)F)cc2)nc2c1CSCC2 [XAV939] + CC(C)C[C@H](NC(=O)[C@H](Cc1ccccc1)NC(=O)c1cnccn1)B(O)O [Bortezomib] (partner 0.002 µM)	0.853
Oc1nc(-c2ccc(C(F)(F)F)cc2)nc2c1CSCC2 [XAV939] + C[C@]1(O)C[C@@H](c2nc(-c3ccc4ccc(-c5ccccc5)nc4c3)c3c(N)nccn32)C1 [Linsitinib] (partner 1 µM)	0.784
Oc1nc(-c2ccc(C(F)(F)F)cc2)nc2c1CSCC2 [XAV939] + NC(=O)Nc1cc(-c2cccc(F)c2)sc1C(=O)N[C@H]1CCCNC1 [AZD7762] (partner 0.2 µM)	0.669
C=C1C(=O)O[C@@H](CCCCCCCC)[C@@H]1C(=O)O [C-75] + Cc1nc(Nc2ncc(C(=O)Nc3c(C)cccc3Cl)s2)cc(N2CCN(CCO)CC2)n1 [Dasatinib] (partner 0.075 µM)	0.327

----------
system: EMC-BAC-2; experiment: relative viability (nuclei count vs DMSO), 5 days (fraction); higher = more cells survive; details: first compound 0.005 µM
Measurement Label: relative viability

Molecule	Measurement Label	Numeric Readout
CC1(C)CCC(c2ccc(Cl)cc2)=C(CN2CCN(c3ccc(C(=O)NS(=O)(=O)c4ccc(N[C@H](CCN5CCOCC5)CSc5ccccc5)c(S(=O)(=O)C(F)(F)F)c4)cc3)CC2)C1 [Navitoclax] + NC(=O)Nc1cc(-c2cccc(F)c2)sc1C(=O)N[C@H]1CCCNC1 [AZD7762] (partner 0.2 µM)	relative viability	1.03

----------
test system: EPLC-272H; test: relative viability (nuclei count vs DMSO), 5 days (fraction); higher = more cells survive; details: first compound 0.8 µM
relative viability overview

Compound	relative viability
Oc1nc(-c2ccc(C(F)(F)F)cc2)nc2c1CSCC2 [XAV939] + CS(=O)(=O)CCNCc1ccc(-c2ccc3ncnc(Nc4ccc(OCc5cccc(F)c5)c(Cl)c4)c3c2)o1 [Lapatinib] (partner 2 µM)	1
Oc1nc(-c2ccc(C(F)(F)F)cc2)nc2c1CSCC2 [XAV939] + CC(C)C[C@H](NC(=O)[C@H](Cc1ccccc1)NC(=O)c1cnccn1)B(O)O [Bortezomib] (partner 0.002 µM)	1.02
Oc1nc(-c2ccc(C(F)(F)F)cc2)nc2c1CSCC2 [XAV939] + COc1cc2c(Oc3ccc(NC(=O)C4(C(=O)Nc5ccc(F)cc5)CC4)cc3F)ccnc2cc1OCCCN1CCOCC1 [Foretinib] (partner 0.25 µM)	0.672

----------
# relative viability values compiled below
test system: EMC-BAC-2; assay: relative viability (nuclei count vs DMSO), 5 days (fraction); higher = more cells survive; conditions: first compound 0.005 µM

Compound	relative viability
CC1(C)CCC(c2ccc(Cl)cc2)=C(CN2CCN(c3ccc(C(=O)NS(=O)(=O)c4ccc(N[C@H](CCN5CCOCC5)CSc5ccccc5)c(S(=O)(=O)C(F)(F)F)c4)cc3)CC2)C1 [Navitoclax] + Cc1nc(Nc2ncc(C(=O)Nc3c(C)cccc3Cl)s2)cc(N2CCN(CCO)CC2)n1 [Dasatinib] (partner 0.075 µM)	0.29
CC1(C)CCC(c2ccc(Cl)cc2)=C(CN2CCN(c3ccc(C(=O)NS(=O)(=O)c4ccc(N[C@H](CCN5CCOCC5)CSc5ccccc5)c(S(=O)(=O)C(F)(F)F)c4)cc3)CC2)C1 [Navitoclax] + CS(=O)(=O)N1CCN(Cc2cc3nc(-c4cccc5[nH]ncc45)nc(N4CCOCC4)c3s2)CC1 [Pictilisib] (partner 1 µM)	0.506
CC1(C)CCC(c2ccc(Cl)cc2)=C(CN2CCN(c3ccc(C(=O)NS(=O)(=O)c4ccc(N[C@H](CCN5CCOCC5)CSc5ccccc5)c(S(=O)(=O)C(F)(F)F)c4)cc3)CC2)C1 [Navitoclax] + C[C@]1(O)C[C@@H](c2nc(-c3ccc4ccc(-c5ccccc5)nc4c3)c3c(N)nccn32)C1 [Linsitinib] (partner 1 µM)	0.759
